Test system: MDA-MB-468 breast
Test: NCI-60 one-dose screen, 48 h (100 = growth as untreated, 0 = no growth, -100 = all killed)
Conditions: 10 µM unless noted
Procedure: Growth inhibition of the MDA-MB-468 human Breast tumor cell line is measured as a screen for anti-cancer activity. Cells are grown in 96 well plates and exposed to the test compound for 48 hours. Compounds are tested at a single concentration, which is 10^-5 M for most compounds. The reported endpoint is percent growth (GI% or GIPRCNT), where numbers from 0 - 100% represent growth inhibition, and numbers from -100% - 0 represent cell death. […]
This is part of a sample that, as a whole, favours compounds with a hit. Of some 83,000 tested, about 20% had one in any assay.
growth of 70% or higher: 1. Under 70%: 0.

{"columns": ["smiles_repr", "label_value"],
 "data": [
  ["NS(=O)(=O)Oc1ccc(-c2ccc3sccc3c2)cc1", 1],
  ["COc1cc(/C(C)=C(\\c2ccc(Cl)cc2)c2ccc(OCCN3CCCC3)cc2)ccc1F", 0],
  ["CN1CCN(CCCOc2cccc3nc(Nc4ccc(Cl)c(C(F)(F)F)c4)ccc23)CC1", 0],
  ["O=C(CNC(=O)c1cccc2ccccc12)Nc1ccccc1Oc1ccccc1", 0],
  ["Nc1nc(Nc2cc(Cl)cc(Cl)c2)nn1S(=O)(=O)c1ccc2ccccc2c1", 0]
]}
